I'd be grateful if you could share measured pIC50 for these entries.
# study_system: PRMT5/MEP50 (Homo sapiens (Human), UniProt O14744)
# Sequence (O14744 other isoform, or with tags, fused parts or gaps): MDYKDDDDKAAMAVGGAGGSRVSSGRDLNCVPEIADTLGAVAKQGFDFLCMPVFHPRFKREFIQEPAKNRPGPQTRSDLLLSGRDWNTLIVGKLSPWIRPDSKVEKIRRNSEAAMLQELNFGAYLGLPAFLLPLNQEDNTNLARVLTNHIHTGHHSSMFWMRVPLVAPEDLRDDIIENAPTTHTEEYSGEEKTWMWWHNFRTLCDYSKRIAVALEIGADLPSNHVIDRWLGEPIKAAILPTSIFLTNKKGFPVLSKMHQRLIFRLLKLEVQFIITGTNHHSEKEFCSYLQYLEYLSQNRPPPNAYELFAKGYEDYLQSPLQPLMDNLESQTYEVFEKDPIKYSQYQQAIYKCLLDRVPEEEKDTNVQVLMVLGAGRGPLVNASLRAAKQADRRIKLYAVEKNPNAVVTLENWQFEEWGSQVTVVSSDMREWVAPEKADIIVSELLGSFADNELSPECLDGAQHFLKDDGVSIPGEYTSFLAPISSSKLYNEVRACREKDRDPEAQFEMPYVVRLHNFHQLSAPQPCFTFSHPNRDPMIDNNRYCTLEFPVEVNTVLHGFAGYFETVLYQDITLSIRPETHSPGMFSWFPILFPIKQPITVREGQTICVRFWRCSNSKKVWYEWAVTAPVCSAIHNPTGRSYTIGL
# Sequence (Q9BQA1 other isoform, or with tags, fused parts or gaps partner): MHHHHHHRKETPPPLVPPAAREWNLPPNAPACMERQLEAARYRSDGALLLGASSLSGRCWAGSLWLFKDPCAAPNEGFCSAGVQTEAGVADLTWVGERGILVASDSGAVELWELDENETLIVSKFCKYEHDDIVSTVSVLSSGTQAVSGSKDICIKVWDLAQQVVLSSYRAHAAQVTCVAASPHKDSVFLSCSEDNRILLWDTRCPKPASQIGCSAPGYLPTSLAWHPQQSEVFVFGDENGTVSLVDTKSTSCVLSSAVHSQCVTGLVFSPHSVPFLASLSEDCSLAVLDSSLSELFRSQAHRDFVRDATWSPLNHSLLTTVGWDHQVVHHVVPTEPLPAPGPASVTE
# measurement_notes: PRMT5 Biochemical Assay (PRMT5/MEP50 enzyme assay on peptide substrate, 3H-SAM Flashplate)
# stated_conditions: PRMT5/MEP50 4 nM, 3H-SAM 75 nM, peptide 40 nM
pIC50: −log10 of the molar value.

[ask] Any idea what its pIC50 is? The compound is CS(=O)(=O)Nc1cccnc1OCC(=O)NCC(O)CN1CCc2ccccc2C1 (stereo not drawn)
[reply] 5.00 to 6.00

[ask] Any idea what its pIC50 is? The compound is NC(=O)c1cccc(OCC(=O)NCC(O)CN2CCc3ccccc3C2)c1 (stereo not drawn)
[reply] 6.00 to 7.00

[ask] Any idea what its pIC50 is? The compound is CS(=O)(=O)N1CCN(c2ccccc2OCC(=O)NCC(O)CN2CCc3ccccc3C2)CC1 (stereo not drawn)
[reply] 6.00 to 7.00

[ask] Any idea what its pIC50 is? The compound is O=C(COc1cccc2ncc(=O)[nH]c12)NCC(O)CN1CCc2ccccc2C1 (stereo not drawn)
[reply] 6.00 to 7.00

[ask] Any idea what its pIC50 is? The compound is O=C(COC1CCOCC1)NCC(O)CN1CCc2ccccc2C1 (stereo not drawn)
[reply] 5.00 to 6.00

[ask] Any idea what its pIC50 is? The compound is CN1CC(c2ccccc2OCC(=O)NCC(O)CN2CCc3ccccc3C2)C1 (stereo not drawn)
[reply] 5.00 to 6.00

[ask] Any idea what its pIC50 is? The compound is N#Cc1ccc(OCC(=O)NCC(O)CN2CCc3ccccc3C2)cc1 (stereo not drawn)
[reply] 6.00 to 7.00

[ask] Any idea what its pIC50 is? The compound is CS(=O)(=O)Nc1ccc(OCC(=O)NCC(O)CN2CCc3ccccc3C2)cc1 (stereo not drawn)
[reply] 6.00 to 7.00

[ask] Any idea what its pIC50 is? The compound is Cn1ccnc1-c1ccccc1OCC(=O)NCC(O)CN1CCc2ccccc2C1 (stereo not drawn)
[reply] 6.00 to 7.00

[ask] Any idea what its pIC50 is? The compound is O=C(Cc1cccc2cccnc12)NCC(O)CN1CCc2ccccc2C1 (stereo not drawn)
[reply] 6.00 to 7.00

[ask] Any idea what its pIC50 is? The compound is CN1CCCc2c(OCC(=O)NCC(O)CN3CCc4ccccc4C3)cccc21 (stereo not drawn)
[reply] 6.00 to 7.00

[ask] Any idea what its pIC50 is? The compound is CNC(=O)c1ccccc1OCC(=O)NCC(O)CN1CCc2ccccc2C1 (stereo not drawn)
[reply] 6.00 to 7.00

====

I'd be grateful if you could share measured IC50 for these entries.
# study_system: PRMT5/MEP50 (Homo sapiens (Human), UniProt O14744)
# measurement_notes: PRMT5 Biochemical Assay (PRMT5/MEP50 enzyme assay on peptide substrate, 3H-SAM Flashplate)
# stated_conditions: PRMT5/MEP50 4 nM, 3H-SAM 75 nM, peptide 40 nM
# Procedure: General Materials. […] The assays were all performed in a buffer consisting of 20 mM Bicine (pH=7.6), 1 mM TCEP, 0.005% BSG, and 0.002% Tween20, prepared on the day of use. […] The plates were then read in a PerkinElmer TopCount plate reader to measure the quantity of ^3H-labeled peptide bound to the Flashplate surface, measured as disintegrations per minute (dpm) or alternatively, referred to as counts per minute (cpm). […]

[ask] Any idea what its IC50 is? The compound is O=C(COc1cccc(NC2CCOCC2)n1)NCC(O)CN1CCc2ccccc2C1 (stereo not drawn)
[reply] 1000 to 10000 nM

[ask] Any idea what its IC50 is? The compound is NC(=O)c1ccc(OCC(=O)NCC(O)CN2CCc3ccccc3C2)cc1 (stereo not drawn)
[reply] 1000 to 10000 nM

[ask] Any idea what its IC50 is? The compound is O=C(COc1cccc2c1CCCN2)NCC(O)CN1CCc2ccccc2C1 (stereo not drawn)
[reply] 101 to 1000 nM

[ask] Any idea what its IC50 is? The compound is CC(Oc1ccccc1S(C)(=O)=O)C(=O)NCC(O)CN1CCc2ccccc2C1 (stereo not drawn)
[reply] 101 to 1000 nM

[ask] Any idea what its IC50 is? The compound is CC(C)(Oc1ccccc1)C(=O)NCC(O)CN1CCc2ccccc2C1 (stereo not drawn)
[reply] 101 to 1000 nM

[ask] Any idea what its IC50 is? The compound is Cc1ccccc1OCC(=O)NCC(O)CN1CCc2ccccc2C1 (stereo not drawn)
[reply] 101 to 1000 nM

[ask] Any idea what its IC50 is? The compound is O=C(Cc1ccccc1)NC[C@@H](O)CN1CCc2ccccc2C1
[reply] 10000 to 50000 nM

[ask] Any idea what its IC50 is? The compound is C[C@H](Oc1cccc2cccnc12)C(=O)NC[C@@H](O)CN1CCc2ccccc2C1
[reply] 1000 to 10000 nM

[ask] Any idea what its IC50 is? The compound is Cn1nccc1-c1cccc(CC(=O)NCC(O)CN2CCc3ccccc3C2)c1 (stereo not drawn)
[reply] 101 to 1000 nM

[ask] Any idea what its IC50 is? The compound is Cn1cnc2cc(OCC(=O)NCC(O)CN3CCc4ccccc4C3)ccc21 (stereo not drawn)
[reply] 101 to 1000 nM

[ask] Any idea what its IC50 is? The compound is N#Cc1cccc(OCC(=O)NCC(O)CN2CCc3ccccc3C2)c1 (stereo not drawn)
[reply] 101 to 1000 nM

[ask] Any idea what its IC50 is? The compound is NS(=O)(=O)c1ccc(OCC(=O)NCC(O)CN2CCc3ccccc3C2)cc1 (stereo not drawn)
[reply] 1000 to 10000 nM

[ask] Any idea what its IC50 is? The compound is CN1CCC(c2ccccc2OCC(=O)NCC(O)CN2CCc3ccccc3C2)CC1 (stereo not drawn)
[reply] 101 to 1000 nM

[ask] Any idea what its IC50 is? The compound is O=C(COc1cccc2[nH]c(=O)cnc12)NCC(O)CN1CCc2ccccc2C1 (stereo not drawn)
[reply] 1000 to 10000 nM

[ask] Any idea what its IC50 is? The compound is CN(c1cccc(OCC(=O)NCC(O)CN2CCc3ccccc3C2)c1)S(C)(=O)=O (stereo not drawn)
[reply] 101 to 1000 nM

[ask] Any idea what its IC50 is? The compound is CC(=O)Nc1cccc(OCC(=O)NCC(O)CN2CCc3ccccc3C2)c1 (stereo not drawn)
[reply] 1000 to 10000 nM

[ask] Any idea what its IC50 is? The compound is O=C(COc1cccc2cccnc12)NC[C@H](O)CN1CCc2ccccc2C1
[reply] 101 to 1000 nM

[ask] Any idea what its IC50 is? The compound is CN(CC(O)CN1CCc2ccccc2C1)C(=O)CCc1ccccc1 (stereo not drawn)
[reply] 1000 to 10000 nM

[ask] Any idea what its IC50 is? The compound is O=C(COc1cccc(C(=O)N2CCOCC2)c1)NCC(O)CN1CCc2ccccc2C1 (stereo not drawn)
[reply] 101 to 1000 nM

[ask] Any idea what its IC50 is? The compound is Nc1ncccc1OCC(=O)NCC(O)CN1CCc2ccccc2C1 (stereo not drawn)
[reply] 1000 to 10000 nM

[ask] Any idea what its IC50 is? The compound is CN1CCc2cccc(OCC(=O)NCC(O)CN3CCc4ccccc4C3)c2C1 (stereo not drawn)
[reply] 101 to 1000 nM

[ask] Any idea what its IC50 is? The compound is COc1ccc(OCC(=O)NCC(O)CN2CCc3ccccc3C2)cc1 (stereo not drawn)
[reply] 101 to 1000 nM

[ask] Any idea what its IC50 is? The compound is O=C(CC1CCCCC1)NC[C@@H](O)CN1CCc2ccccc2C1
[reply] 10000 to 50000 nM

[ask] Any idea what its IC50 is? The compound is O=C(Cc1ccccc1)NC[C@H](O)CN1CCc2ccccc2C1
[reply] 101 to 1000 nM

[ask] Any idea what its IC50 is? The compound is O=C(COc1ccccc1)NCC(O)CN1CCc2ccccc2C1 (stereo not drawn)
[reply] 101 to 1000 nM

[ask] Any idea what its IC50 is? The compound is O=C(COc1ccc(F)cc1)NCC(O)CN1CCc2ccccc2C1 (stereo not drawn)
[reply] 1000 to 10000 nM

[ask] Any idea what its IC50 is? The compound is O=C(COc1ccccc1C1CCNC1)NCC(O)CN1CCc2ccccc2C1 (stereo not drawn)
[reply] 1000 to 10000 nM

[ask] Any idea what its IC50 is? The compound is CN(C)c1ccc2cccc(OCC(=O)NC[C@H](O)CN3CCc4ccccc4C3)c2n1
[reply] 101 to 1000 nM

[ask] Any idea what its IC50 is? The compound is O=C(COc1ccccc1-c1ncc[nH]1)NCC(O)CN1CCc2ccccc2C1 (stereo not drawn)
[reply] 101 to 1000 nM

[ask] Any idea what its IC50 is? The compound is CN(C)c1ccc(OCC(=O)NCC(O)CN2CCc3ccccc3C2)cc1 (stereo not drawn)
[reply] 101 to 1000 nM

[ask] Any idea what its IC50 is? The compound is O=C(COc1ccccc1F)NCC(O)CN1CCc2ccccc2C1 (stereo not drawn)
[reply] 101 to 1000 nM

[ask] Any idea what its IC50 is? The compound is CN(C)CCOc1ccccc1OCC(=O)NC[C@@H](O)CN1CCc2ccccc2C1
[reply] 101 to 1000 nM

[ask] Any idea what its IC50 is? The compound is CN1CCC(c2ccccc2OCC(=O)NCC(O)CN2CCc3ccccc3C2)C1 (stereo not drawn)
[reply] 1000 to 10000 nM

[ask] Any idea what its IC50 is? The compound is CS(=O)(=O)c1ccc(OCC(=O)NCC(O)CN2CCc3ccccc3C2)cc1 (stereo not drawn)
[reply] 1000 to 10000 nM

[ask] Any idea what its IC50 is? The compound is Cn1cc2c(OCC(=O)NCC(O)CN3CCc4ccccc4C3)cccc2n1 (stereo not drawn)
[reply] 101 to 1000 nM

[ask] Any idea what its IC50 is? The compound is CN1CCN(c2ccccc2OCC(=O)NC[C@@H](O)CN2CCc3ccccc3C2)CC1
[reply] 1000 to 10000 nM
